- procedure summary: solvent given as SMILES
- particulars: in CCCCCC
endpoint label: emission maximum (nm)

compound_structure_string=c1ccc2c(c1)CCc1ccccc1N2 unit_tag=nm observed_result=329
compound_structure_string=CC1=CC(C)=[N+]2C1=C(c1ccc(-c3c4ccccc4c(-c4ccccc4)c4ccccc34)cc1)c1c(C)cc(C)n1[B-]2(F)F unit_tag=nm observed_result=511
compound_structure_string=CCC1=C(C)C2=C(C)c3c(C)c(CC)c(C)n3[B-](F)(F)[N+]2=C1C unit_tag=nm observed_result=533.6
compound_structure_string=CCCCCCCCCCCCNc1cccc2[n+]1[B-](F)(F)n1c(c3cccc4cccc1c43)=N2 unit_tag=nm observed_result=509
compound_structure_string=CCCCCC(=O)c1c2c(c(C(=O)CCCCC)c3c1OC1(CCCC1)O3)OC1(CCCC1)O2 unit_tag=nm observed_result=525
compound_structure_string=c1ccc(-c2nc(-c3ccccc3)nc(-c3ccc(-n4c5ccccc5c5c6c(ccc54)-c4ccccc4C6(c4ccccc4)c4ccccc4)cc3)n2)cc1 unit_tag=nm observed_result=407.03
compound_structure_string=CCN(CC)c1ccc2nc3c4ccccc4c(=O)cc-3oc2c1 unit_tag=nm observed_result=532
compound_structure_string=CC(C)[Si](C#Cc1c2ccccc2c(C#C[Si](C(C)C)(C(C)C)C(C)C)c2nc3c(nc12)C1c2ccccc2C3c2ccccc21)(C(C)C)C(C)C unit_tag=nm observed_result=464
compound_structure_string=CC(C)(C)c1cc2ccc3c(-c4ccc(N(c5ccccc5)c5ccccc5)cc4)ccc4c5nc6cc(C#N)c(C#N)cc6nc5c(c1)c2c34 unit_tag=nm observed_result=575.31

Where do the numbers come from? From the Deep4Chem optical property database.
